- Test system: Escherichia coli TOP10
- assay.procedure: shrunken log2 fold change of peptide-encoding DNA abundance (4.5 h post-induction vs induction); higher = less antimicrobial activity (less host growth inhibition)
- details: time post-induction: 4.5 h; library: site-saturation at positions 5, 18, 19, 20
experimental.readout: shrunken log2 fold change
Reply: number alone, nothing else.

>>> endpoint_result("RRIRRRPPRLPRPRPRPDHSPRP")
0.0322
>>> endpoint_result("RRIRARPPRLPRPRPRPESCPRP")
0.869
>>> endpoint_result("RRIRLRPPRLPRPRPRPWVDPRP")
-0.0575
>>> endpoint_result("RRIRWRPPRLPRPRPRPGSVPRP")
0.306
>>> endpoint_result("RRIRYRPPRLPRPRPRPEQNPRP")
0.00317
>>> endpoint_result("RRIRVRPPRLPRPRPRPVAQPRP")
0.247

# shrunken log2 fold change measured on Escherichia coli TOP10 for item "RRIRNRPPRLPRPRPRPLIQPRP" = -0.327

Record "RRIRFRPPRLPRPRPRPPWEPRP" / Escherichia coli TOP10, shrunken log2 fold change recorded as 0.124

====

- Test system: Escherichia coli TOP10
- assay.procedure: shrunken log2 fold change of peptide-encoding DNA abundance (4.5 h post-induction vs induction); higher = less antimicrobial activity (less host growth inhibition)
- details: time post-induction: 4.5 h; library: site-saturation at positions 5, 18, 19, 20
Recorded shrunken log2 fold change for the following sequences
API note: the answer field is a bare number with no unit suffix.

Consider the reported shrunken log2 fold change for these sequences:
>>> endpoint_result("RRIRYRPPRLPRPRPRPCNRPRP")
-0.182
>>> endpoint_result("RRIRIRPPRLPRPRPRPPCPPRP")
-0.141
>>> endpoint_result("RRIRHRPPRLPRPRPRPHNHPRP")
-0.577
>>> endpoint_result("RRIRIRPPRLPRPRPRPDWWPRP")
-0.00879
>>> endpoint_result("RRIRPRPPRLPRPRPRPKTTPRP")
0.507
>>> endpoint_result("RRIRKRPPRLPRPRPRPQESPRP")
-0.00973

Given item "RRIRHRPPRLPRPRPRPSLLPRP" , the value recorded as its shrunken log2 fold change is -0.287

# shrunken log2 fold change (sequence: "RRIRHRPPRLPRPRPRPQRFPRP" ) is -0.0098

Noted for "RRIRHRPPRLPRPRPRPEMLPRP" : its shrunken log2 fold change reads -0.32

So for "RRIRWRPPRLPRPRPRPIDLPRP" , the logged shrunken log2 fold change turned out to be 0.0151

Reported shrunken log2 fold change for "RRIRRRPPRLPRPRPRPEIKPRP" was 0.27

Item: "RRIRTRPPRLPRPRPRPDCHPRP" | shrunken log2 fold change: -0.0374

According to the records, this sequence "RRIRWRPPRLPRPRPRPVPDPRP" displays shrunken log2 fold change of -0.101

The value of shrunken log2 fold change measured for the sequence "RRIRHRPPRLPRPRPRPIYFPRP" turned out to be -0.123

response.value for "RRIRTRPPRLPRPRPRPSPSPRP" (field: shrunken log2 fold change) = -0.0444

====

- System: Escherichia coli TOP10
- assay.procedure: shrunken log2 fold change of peptide-encoding DNA abundance (4.5 h post-induction vs induction); higher = less antimicrobial activity (less host growth inhibition)
- details: time post-induction: 4.5 h; library: site-saturation at positions 5, 18, 19, 20
# if value of shrunken log2 fold change reaches -0.09, tag y; if it stays below, tag n

Look over these answered cases.
>>> category("RRIRPRPPRLPRPRPRPDVQPRP")
"y"
>>> category("RRIRCRPPRLPRPRPRPPEQPRP")
"y"
>>> category("RRIRNRPPRLPRPRPRPQLAPRP")
"n"
>>> category("RRIRPRPPRLPRPRPRPSTWPRP")
"y"
>>> category("RRIRLRPPRLPRPRPRPDDGPRP")
"y"
>>> category("RRIRIRPPRLPRPRPRPFNIPRP")
"n"
>>> category("RRIRNRPPRLPRPRPRPGMIPRP")
"y"
>>> category("RRIRTRPPRLPRPRPRPSHVPRP")
"y"
>>> category("RRIRRRPPRLPRPRPRPCIVPRP")
"n"
>>> category("RRIRERPPRLPRPRPRPYGIPRP")
"y"

Please check the record "RRIRPRPPRLPRPRPRPYPMPRP" and state if its shrunken log2 fold change is at or above -0.09.
n

Form field: shrunken log2 fold change at least -0.09? Entry: "RRIRDRPPRLPRPRPRPNQHPRP"
n

Say whether "RRIRCRPPRLPRPRPRPRTVPRP" shows shrunken log2 fold change of -0.09 or more.
y

Kindly determine if shrunken log2 fold change recorded for "RRIRKRPPRLPRPRPRPIVYPRP" is above or exactly -0.09.
y

====

- System: Escherichia coli TOP10
- assay.procedure: shrunken log2 fold change of peptide-encoding DNA abundance (4.5 h post-induction vs induction); higher = less antimicrobial activity (less host growth inhibition)
- details: time post-induction: 4.5 h; library: site-saturation at positions 5, 18, 19, 20
shrunken log2 fold change values, listed per item
Reply with the value as a number alone.

>>> endpoint_result("RRIRTRPPRLPRPRPRPGAWPRP")
0.12
>>> endpoint_result("RRIRPRPPRLPRPRPRPEIPPRP")
0.0702
>>> endpoint_result("RRIRERPPRLPRPRPRPCWDPRP")
-0.00421

Recorded result, "RRIRERPPRLPRPRPRPEHPPRP" , shrunken log2 fold change: -0.0878

Notebook: "RRIRGRPPRLPRPRPRPMHCPRP" , shrunken log2 fold change read as 0.0139

The reported shrunken log2 fold change of the sequence "RRIRFRPPRLPRPRPRPPYWPRP" was 0.191

Lookup result for "RRIRGRPPRLPRPRPRPWGRPRP" ; measured shrunken log2 fold change: 0.413

response.value for "RRIRRRPPRLPRPRPRPCQGPRP" (field: shrunken log2 fold change) = -0.129

Lab book: shrunken log2 fold change of "RRIRHRPPRLPRPRPRPCDKPRP" noted as -0.113

Recorded result, "RRIRTRPPRLPRPRPRPSWCPRP" , shrunken log2 fold change: -0.322

Memo: "RRIRCRPPRLPRPRPRPVVEPRP" , reported shrunken log2 fold change: 0.0964

Entry "RRIRNRPPRLPRPRPRPHFSPRP" — recorded shrunken log2 fold change = 0.0053

Measured shrunken log2 fold change, "RRIRWRPPRLPRPRPRPTEQPRP" : 0.357

Per the record, "RRIRLRPPRLPRPRPRPYKAPRP" has shrunken log2 fold change of -0.112

The recorded shrunken log2 fold change for entry "RRIRQRPPRLPRPRPRPVGIPRP" equals -0.0511

====

Recorded shrunken log2 fold change values for a group of sequences are listed next.
- Test system: Escherichia coli TOP10
- assay.procedure: shrunken log2 fold change of peptide-encoding DNA abundance (4.5 h post-induction vs induction); higher = less antimicrobial activity (less host growth inhibition)
- details: time post-induction: 4.5 h; library: site-saturation at positions 5, 18, 19, 20
Keep it simple and answer with nothing but the number.

Some sequences with recorded shrunken log2 fold change:
>>> endpoint_result("RRIRDRPPRLPRPRPRPLMAPRP")
1.09
>>> endpoint_result("RRIRYRPPRLPRPRPRPTNAPRP")
-0.24
>>> endpoint_result("RRIRPRPPRLPRPRPRPADCPRP")
0.273
>>> endpoint_result("RRIRKRPPRLPRPRPRPHQQPRP")
-0.0506
>>> endpoint_result("RRIRNRPPRLPRPRPRPNCNPRP")
-0.549
>>> endpoint_result("RRIRQRPPRLPRPRPRPGMIPRP")
-0.446
>>> endpoint_result("RRIRHRPPRLPRPRPRPRWAPRP")
0.315
>>> endpoint_result("RRIRRRPPRLPRPRPRPAVGPRP")
0.344

Record "RRIRKRPPRLPRPRPRPWMDPRP" , field shrunken log2 fold change: 0.0169

The measured shrunken log2 fold change associated with "RRIRRRPPRLPRPRPRPYQMPRP" reads -0.0261

====

- Test system: Escherichia coli TOP10;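 also: peptides expressed intracellularly from a pBAD plasmid library in pooled LB shake-flask culture, induced with 0.3% L-arabinose, DNA abundance read by NGS, three biological replicates, DESeq2 with apeglm shrinkage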
- assay.procedure: shrunken log2 fold change of peptide-encoding DNA abundance (4.5 h post-induction vs induction); higher = less antimicrobial activity (less host growth inhibition)
- details: time post-induction: 4.5 h; library: site-saturation at positions 5, 18, 19, 20
# cutoff -0.01 applies to shrunken log2 fold change; >= gives 1, < gives -1

Record excerpt, results attached:
>>> category("RRIRTRPPRLPRPRPRPSAWPRP")
1
>>> category("RRIRYRPPRLPRPRPRPALPPRP")
-1
>>> category("RRIRDRPPRLPRPRPRPVARPRP")
1

API: above_or_equal(metric=shrunken log2 fold change, cutoff=-0.01) for item "RRIRKRPPRLPRPRPRPKLIPRP"
1

shrunken log2 fold change >= -0.01 for "RRIRERPPRLPRPRPRPESCPRP" ?
-1

Form field: shrunken log2 fold change at least -0.01? Entry: "RRIRCRPPRLPRPRPRPDSKPRP"
-1

Entry "RRIRHRPPRLPRPRPRPFGLPRP" : is its shrunken log2 fold change no less than -0.01?
-1
